# System: Human breast cancer cell lines T-47D
# test.summary: Inhibition of cell proliferation (GI50, CellTiter-Glo) in T-47D cells
# Type: cell-based
# details: T47D cells, 48 h incubation
value.kind: GI50 (nM)
Give the number; nM is assumed, so skip it.

Challenge: Report value: GI50, system: Human breast cancer cell lines T-47D, molecule: COc1ccccc1-c1nnc2sc(-c3ccc(C)c(N)c3)nn12 [Entry 5]
Response given: 22

Challenge: Param request: GI50 | system Human breast cancer cell lines T-47D | item COc1ccc(-c2nn3c(-c4ccccc4C)nnc3s2)cc1OC [E]
Response given: 3850

Challenge: Provide Human breast cancer cell lines T-47D GI50 reading for CCc1cc(-c2nnc3sc(-c4ccc(OC)cc4)nn23)n(C)n1 [C] .
Response given: 900

Challenge: Lab note: Human breast cancer cell lines T-47D assay, enter GI50 for CCc1cc(-c2nnc3sc(-c4ccc(C)cc4)nn23)n(C)n1 [A] here
Response given: 2730

Challenge: Fetch value of GI50 on Human breast cancer cell lines T-47D for COc1ccc(-c2nn3c(-c4ccccc4OC)nnc3s2)cc1OC [I] .
Response given: 261

Challenge: Please respond with reported GI50 (system Human breast cancer cell lines T-47D) for COc1ccc(-c2nn3c(-c4ccccc4OC)nnc3s2)cc1N [Entry 7] .
Response given: 100

Challenge: Jot down GI50 (Human breast cancer cell lines T-47D) of Cc1ccc(-c2nn3c(-c4n[nH]c5c4CCC5)nnc3s2)cc1 [Entry M1] .
Response given: 200
